- target-system: BTK‐WT (Homo sapiens)
- Sequence (Q06187 whole entry): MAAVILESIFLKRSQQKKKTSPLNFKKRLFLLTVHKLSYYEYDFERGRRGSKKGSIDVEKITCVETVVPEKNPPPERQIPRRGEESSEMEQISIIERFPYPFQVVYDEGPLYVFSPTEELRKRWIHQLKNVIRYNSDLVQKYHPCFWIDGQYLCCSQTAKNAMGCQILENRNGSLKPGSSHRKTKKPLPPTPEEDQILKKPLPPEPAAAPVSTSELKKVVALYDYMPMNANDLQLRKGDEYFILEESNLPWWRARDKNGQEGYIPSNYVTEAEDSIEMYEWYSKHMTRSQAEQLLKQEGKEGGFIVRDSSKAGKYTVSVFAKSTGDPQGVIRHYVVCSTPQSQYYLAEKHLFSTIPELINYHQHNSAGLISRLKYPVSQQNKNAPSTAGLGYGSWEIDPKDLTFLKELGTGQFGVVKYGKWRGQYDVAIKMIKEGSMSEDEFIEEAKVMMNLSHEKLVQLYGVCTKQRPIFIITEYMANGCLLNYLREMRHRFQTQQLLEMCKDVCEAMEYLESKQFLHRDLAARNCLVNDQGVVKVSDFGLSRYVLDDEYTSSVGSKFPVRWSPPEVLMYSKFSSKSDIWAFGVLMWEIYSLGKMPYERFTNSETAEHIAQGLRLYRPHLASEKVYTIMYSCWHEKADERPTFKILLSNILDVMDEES
pKi: −log10 of the molar value.

>  <molecule>
C=CC(=O)N1CC2CC(n3nc(-c4ccc(C(=O)Nc5ccccn5)cc4)c4c(N)ncnc43)CC2C1 (stereo not shown)

>  <pKi>
7.85

$$$$

---

- target-system: mutant BTK (C481S) (Homo sapiens, UniProt Q06187, C481S)
- Sequence (Q06187 whole entry C481S): as the sequence (Q06187 whole entry) above, with C481S counted along it
- method-summary: BTK enzyme activity assay
measured-metric: IC50

>  <compound>
C=CC(=O)N1CC2CC(n3nc(-c4ccc(C(=O)Nc5ccccn5)cc4)c4c(N)ncnc43)CC2C1 (stereo not shown)

>  <result>
14 nM

$$$$

---

- method-summary: pH dependent solubility
- Assay type: physicochemical
- conditions-used: pH 1.2, simulated gastric fluid

>  <compound>
C=CC(=O)N1CC2CC(n3nc(-c4ccc(C(=O)Nc5ccccn5)cc4)c4c(N)ncnc43)CC2C1 (stereo not shown)

>  <solubility / µM>
500

$$$$
